- System: MOLT-4 leukemia
- test_protocol: NCI tumour cell line growth inhibition, 48 h
property_label: TGI

compound: O=[N+]([O-])c1ccc(/C=C/c2csnn2)cc1
system_under_test: MOLT-4 leukemia
property_label: TGI
reported_value: > 100 µM
--
compound: O=c1oc2ccc(Cl)cc2cc1-c1cn2ccccc2n1
system_under_test: MOLT-4 leukemia
property_label: TGI
reported_value: > 100 µM
--
compound: COc1cc(S(=O)(=O)Nc2ccc(-c3csc(N4C(=O)C(Cl)C4c4ccccc4)n3)cc2)ccc1Cl (stereo unspecified)
system_under_test: MOLT-4 leukemia
property_label: TGI
reported_value: > 100 µM
--
compound: CC(C)(CCCCC(C)(C)C1NC(=O)N1)C1NC(=O)N1
system_under_test: MOLT-4 leukemia
property_label: TGI
reported_value: > 10 µM
--
compound: CC(C)(C)OC/C=C1\C(=O)O[C@H]2C[C@@H](O[Si](C)(C)C(C)(C)C)C[C@@H]12
system_under_test: MOLT-4 leukemia
property_label: TGI
reported_value: > 100 µM
--
compound: O=c1c2cc(Cl)ccc2[nH]c2cc(O)cc(O)c12
system_under_test: MOLT-4 leukemia
property_label: TGI
reported_value: > 10 µM
--
compound: N#Cc1c(O)c(N=Nc2ccc(Cl)cc2)c(=O)n2c1[nH]c1ccccc12
system_under_test: MOLT-4 leukemia
property_label: TGI
reported_value: > 100 µM
--
compound: COC(=O)C1C=NNC1C(=O)OC (stereo unspecified)
system_under_test: MOLT-4 leukemia
property_label: TGI
reported_value: > 100 µM
--
compound: N#Cc1nc(-c2ccccn2)oc1N
system_under_test: MOLT-4 leukemia
property_label: TGI
reported_value: > 100 µM
--
compound: O=c1c(Br)cc2c(-c3ccccc3)c3cc(Br)c(O)c(Br)c3oc-2c1Br
system_under_test: MOLT-4 leukemia
property_label: TGI
reported_value: > 100 µM
--
compound: CN(C)S(=O)(=O)n1cnc(CO)c1
system_under_test: MOLT-4 leukemia
property_label: TGI
reported_value: > 100 µM

---

List of GI50 values.
- Tested on: SN12C renal
- test_protocol: NCI tumour cell line growth inhibition, 48 h

compound: COc1cc(-c2cc(/C=C/C(=O)c3ccc(Cl)c(Cl)c3)[nH]n2)cc(OC)c1OC
GI50: 13.7 µM

compound: CN1CCN(Cc2ccc(NC(=O)c3cncc(C#Cc4cncc5nccnc45)c3)cc2C(F)(F)F)CC1
GI50: 1.97 µM

compound: Cc1[nH]c(-c2nc3ccccc3[nH]2)c(C)c1C(=O)NC(C)C1CCCCC1 (centres undefined)
GI50: 10.5 µM

compound: c1cncc(C2Nc3cccc4cccc(c34)N2)c1
GI50: 53.4 µM

compound: O=[n+]1c2ccccc2n([O-])c2cc(Cl)ccc21
GI50: 3.52 µM

compound: C=CC/C(=C\COP(=O)(OCc1ccc([N+](=O)[O-])o1)N(C)CCCCCl)CC/C=C(\C)CCC=C(C)C (centres undefined)
GI50: 13.6 µM

compound: Cc1cc(C(=O)O)c(C)n1-c1cccc(C(=O)O)c1
GI50: > 100 µM

compound: CN1CCN(c2nc(NCCCNc3ccnc4cc(Cl)ccc34)c3ccccc3n2)CC1
GI50: 4.97 µM

compound: COc1ccc(/C=C2\CN(Cc3cn(CCNc4ccnc5cc(Cl)ccc45)nn3)C/C(=C\c3ccc(OC)c(OC)c3)C2=O)cc1OC
GI50: 2.36 µM
